biological target: Polyunsaturated fatty acid 5-lipoxygenase (Homo sapiens); experiment: In vitro inhibition of 5-Lipoxygenase; Inactive.
Active and inactive are the calls of the source. The rule behind the calls is not given here.
Quantity Kind: Activity

Inquiry: Record O=C1CCCN(c2ccccc2)C1 : what is its Activity with Polyunsaturated fatty acid 5-lipoxygenase (Homo sapiens)?
Reply text: inactive

Inquiry: Record O=C1CCC(c2ccccc2)=NN1 : what is its Activity with Polyunsaturated fatty acid 5-lipoxygenase (Homo sapiens)?
Reply text: inactive

Inquiry: Record CN1C(=O)CCCN1c1ccccc1 : what is its Activity with Polyunsaturated fatty acid 5-lipoxygenase (Homo sapiens)?
Reply text: inactive

---

Biological target: Polyunsaturated fatty acid 5-lipoxygenase (Homo sapiens, UniProt P09917)
Sequence (P09917 whole entry): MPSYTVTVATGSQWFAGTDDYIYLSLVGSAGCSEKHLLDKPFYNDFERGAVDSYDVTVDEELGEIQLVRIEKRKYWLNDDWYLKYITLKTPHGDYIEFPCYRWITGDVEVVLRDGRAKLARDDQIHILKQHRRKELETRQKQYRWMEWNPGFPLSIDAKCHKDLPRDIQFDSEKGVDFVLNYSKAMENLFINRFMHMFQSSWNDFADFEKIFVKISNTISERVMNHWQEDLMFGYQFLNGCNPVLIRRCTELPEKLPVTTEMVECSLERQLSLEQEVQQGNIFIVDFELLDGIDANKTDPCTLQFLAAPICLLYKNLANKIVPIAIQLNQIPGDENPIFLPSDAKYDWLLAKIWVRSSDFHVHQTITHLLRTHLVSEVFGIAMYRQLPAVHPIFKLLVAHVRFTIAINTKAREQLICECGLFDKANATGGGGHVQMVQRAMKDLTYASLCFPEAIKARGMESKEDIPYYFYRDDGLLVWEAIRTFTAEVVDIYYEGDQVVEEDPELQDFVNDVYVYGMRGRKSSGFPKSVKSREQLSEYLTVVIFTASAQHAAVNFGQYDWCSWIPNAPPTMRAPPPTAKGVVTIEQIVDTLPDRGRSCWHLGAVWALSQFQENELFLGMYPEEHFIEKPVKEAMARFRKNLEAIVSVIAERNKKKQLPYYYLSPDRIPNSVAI
Experiment: Inhibitory activity against 5-lipoxygenase.
pIC50: −log10 of the molar value.
Quantity Kind: pIC50

Below, 8 compounds whose answers are already recorded.
Inquiry: Requested field: pIC50. Item: O=C1CCCN(c2ccc(Cl)cc2)N1
Reply text: 4.10

Inquiry: Requested field: pIC50. Item: CCc1ccc(N2CCCC(=O)N2)cc1
Reply text: 3.90

Inquiry: Requested field: pIC50. Item: CC(C)(C)C(=O)c1cccc(N2CCCC(=O)N2)c1
Reply text: 4.82

Inquiry: Requested field: pIC50. Item: CC(=O)c1cccc(N2CCCC(=O)N2)c1
Reply text: 4.72

Inquiry: Requested field: pIC50. Item: COc1ccc(N2CCCC(=O)N2)cc1
Reply text: 3.81

Inquiry: Requested field: pIC50. Item: O=C1CCCN(c2cccc(F)c2)N1
Reply text: 5.26

Inquiry: Requested field: pIC50. Item: O=C1CCCN(c2cccc(Cl)c2)N1
Reply text: 5.60

Inquiry: Requested field: pIC50. Item: Cc1ccc(N2CCC(=O)N2)cc1
Reply text: 5.46

I = O=C1CCN(c2cccc(Cl)c2)N1
II = CCCCCCCCCCCCN1CCCC(=O)N1
III = COc1ccccc1N1CCCC(=O)N1
IV = CCc1cccc(N2CCCC(=O)N2)c1
Inquiry: Order by pIC50, ascending. The labels, placed in the requested order, form the answer.
Reply text: III, II, IV, I

---

target: Polyunsaturated fatty acid 5-lipoxygenase (Homo sapiens); experiment: Inhibitory activity against 5-lipoxygenase.
pIC50: −log10 of the molar value.
Quantity Kind: pIC50

Inquiry: Requested field: pIC50. Item: O=C1CCCN(c2cccc(C(F)(F)F)c2)N1
Reply text: 5.28

1 = O=C1CCN(c2ccc(Cl)cc2)N1
2 = O=C1CCCN(c2cccc(CO)c2)N1
3 = O=C1CCN(c2ccccc2Cl)N1
4 = Cc1ccccc1N1CCC(=O)N1
5 = O=C1CCCN(c2ccccc2Cl)N1
Inquiry: Order by pIC50, ascending. The labels, placed in the requested order, form the answer.
Reply text: 5, 2, 4, 3, 1

---

target: UniProtKB P09917; assay: Inhibitory activity against 5-lipoxygenase.
pIC50: −log10 of the molar value.
Quantity Kind: pIC50

Below, 6 compounds whose answers are already recorded.
Inquiry: Record O=C1CCCN(c2cccc(Br)c2)N1 : what is its pIC50 with UniProtKB P09917?
Reply text: 5.74

Inquiry: Record O=C1CCCN(c2ccccc2)N1 : what is its pIC50 with UniProtKB P09917?
Reply text: 5.42

Inquiry: Record COc1cccc(N2CCCC(=O)N2)c1 : what is its pIC50 with UniProtKB P09917?
Reply text: 5.17

Inquiry: Record Cc1ccccc1N1CCCC(=O)N1 : what is its pIC50 with UniProtKB P09917?
Reply text: 4.24

Inquiry: Record CCc1ccccc1N1CCCC(=O)N1 : what is its pIC50 with UniProtKB P09917?
Reply text: 4.41

Inquiry: Record Cc1ccc(N2CCCC(=O)N2)cc1 : what is its pIC50 with UniProtKB P09917?
Reply text: 3.56

1 = Cc1cccc(N2CCCC(=O)N2)c1
2 = CCCC(=O)NNc1ccccc1
Inquiry: Param pair: 1 , 2 . Output: the one whose pIC50 is numerically greater. Please identify the chosen entry by its label.
Reply text: 1

---

Target: Polyunsaturated fatty acid 5-lipoxygenase (Homo sapiens)
Sequence (P09917 whole entry): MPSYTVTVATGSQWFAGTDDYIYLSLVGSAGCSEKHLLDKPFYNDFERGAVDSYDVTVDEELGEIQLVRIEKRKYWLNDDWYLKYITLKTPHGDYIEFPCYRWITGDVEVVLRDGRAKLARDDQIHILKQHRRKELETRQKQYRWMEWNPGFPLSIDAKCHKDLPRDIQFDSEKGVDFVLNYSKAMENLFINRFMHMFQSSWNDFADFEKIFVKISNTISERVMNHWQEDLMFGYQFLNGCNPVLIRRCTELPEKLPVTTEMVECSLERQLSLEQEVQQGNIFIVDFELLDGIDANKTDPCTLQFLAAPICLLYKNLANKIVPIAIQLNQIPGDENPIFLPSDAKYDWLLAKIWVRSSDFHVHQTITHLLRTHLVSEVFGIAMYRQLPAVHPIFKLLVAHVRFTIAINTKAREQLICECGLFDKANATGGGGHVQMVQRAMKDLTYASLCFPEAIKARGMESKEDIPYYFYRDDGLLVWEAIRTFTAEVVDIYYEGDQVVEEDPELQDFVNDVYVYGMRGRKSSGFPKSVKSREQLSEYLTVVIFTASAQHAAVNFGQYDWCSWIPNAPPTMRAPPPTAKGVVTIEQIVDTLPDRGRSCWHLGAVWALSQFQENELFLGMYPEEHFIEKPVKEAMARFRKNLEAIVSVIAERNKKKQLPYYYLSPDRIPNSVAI
Experiment: Inhibitory activity against 5-lipoxygenase.
Quantity Kind: IC50 (µM)

Below, 2 molecules whose answers are already recorded.
Inquiry: Record CCOC(=O)c1cccc(N2CCCC(=O)N2)c1 : what is its IC50 with Polyunsaturated fatty acid 5-lipoxygenase (Homo sapiens)?
Reply text: 5.6

Inquiry: Record CC(=O)NNc1ccccc1 : what is its IC50 with Polyunsaturated fatty acid 5-lipoxygenase (Homo sapiens)?
Reply text: 65

I = Cc1cccc(N2CCC(=O)N2)c1
II = N#Cc1cccc(N2CCCC(=O)N2)c1
III = CCCCCCCCN1CCCC(=O)N1
Inquiry: Order by IC50, ascending. The labels, placed in the requested order, form the answer.
Reply text: I, II, III
(I: 1.3 µM, II: 9.3 µM, III: 23 µM)
